- System: HUVEC
- assayProtocol: In vitro anti‐proliferative assay
- Format: cell-based, human
- measurementSetup: Homo sapiens, HUVEC, 48 h, read-out: HUVEC (IC50, μM)
endpoint: IC50 (µM)
Give just the numeric value; µM need not be written.

Problem: Need IC50 of COc1cc2c(cc1O)CC[C@@H]1[C@@H]2CC[C@]2(C)[C@@H](O)CC[C@@H]12 , thanks.
Result: 1.35

Numbers sourced from paper PMC6996566.
